Numbers sourced from ChEMBL document CHEMBL4261585.

System: Staphylococcus aureus
ASSAY_SUMMARY: Antibacterial activity against methicillin-resistant Staphylococcus aureus NR10193 by CLSI method
Type: functional

COMPOUND	TARGET_OF_ASSAY	VALUE_UNITS	INEQUALITY_SIGN	MIC
N#Cc1ccc(/C=C/c2nc3ccccc3c(=O)n2-c2cccc(OCc3cn(Cc4ccccc4)nn3)c2)cc1	Staphylococcus aureus	µg/mL	=	2
N#Cc1ccc(/C=C/c2nc3ccccc3c(=O)n2-c2cccc(OCc3cn(-c4cccc(Cl)c4)nn3)c2)cc1	Staphylococcus aureus	µg/mL	=	1
C[C@H]1COc2c(N3CCN(C)CC3)c(F)cc3c(=O)c(C(=O)O)cn1c23.C[C@H]1COc2c(N3CCN(C)CC3)c(F)cc3c(=O)c(C(=O)O)cn1c23.O [LEVOFLOXACIN]	Staphylococcus aureus	µg/mL	=	32
C[C@@H](O)[C@H]1C(=O)N2C(C(=O)O)=C(S[C@@H]3CN[C@H](C(=O)N(C)C)C3)[C@H](C)[C@H]12 [MEROPENEM]	Staphylococcus aureus	µg/mL	>	64
